# PROCEDURE_DETAILS: Selectivity ratio of Ki for human CB2 receptor to Ki for rat CB1 receptor
Criterion: Ratio Ki strictly under 2. Met: True. Not met: False.

- CC1(C)Oc2cc(C34CC5CC(CC(C5)C3)C4)cc(O)c2[C@@H]2CC(CO)=CC[C@H]21: True
- CC1(C)Oc2cc(C34CC5CC(CC(C5)C3)C4)cc(O)c2-c2cc(CO)ccc21: False
- CC1(C)Oc2cc(C34CC5CC(CC(C5)C3)C4)cc(O)c2[C@@H]2C[C@H](CO)CC[C@H]21: False
- CC1(C)Oc2cc(C34CC5CC(CC(C5)C3)C4)cc(O)c2[C@@H]2C[C@@H](CCO)CC[C@H]21: False
- CC1(C)Oc2cc(C34CC5CC(CC(C5)C3)C4)cc(O)c2[C@@H]2C[C@H](CI)CC[C@H]21: True
- CC1(C)Oc2cc(C34CC5CC(CC(C5)C3)C4)cc(O)c2[C@@H]2C[C@H](CCO)CC[C@H]21: False
- CO/C=C\[C@@H]1CC[C@@H]2[C@@H](C1)c1c(O)cc(C34CC5CC(CC(C5)C3)C4)cc1OC2(C)C: False
- CC1(C)Oc2cc(C34CC5CC(CC(C5)C3)C4)cc(O)c2[C@@H]2C[C@H](C=O)CC[C@H]21: True
